purified protein yield per well reference
PROTOCOL_SUMMARY: purified protein yield per well (BCA); higher = higher soluble expression

// worked examples, purified protein yield per well included
# SEQUENCE_ENTRY, purified protein yield per well
records = [
    ("AGEQEYRRGPDPTLASLQAQEGPFAYATVTVPDQATYDGGTIYYPTDTSQGTFGAIAISPGYTGYQNSIAWYGRLLASNGFVVFTIDVENTNYDQPNARGEQLLDALDYLTQTSSVRSRIDPNRLAVAGHSMGGGGALRASYLRPSLQASIPLTPYHTWKNWSWVTVPTMIFGAENDTVTEVEDHAEPFYNTLTSAQERFYIELNAPADHLTPTSYDPTIGQYPRAFAKRYIDTDTRYEQFLCPPPAPSSAVEESRRACLGS [DP031]", "< 25 µg"),
    ("ATVACSDCSNGFQRGTLPRVDQLESSRGPYSVKTSNVSVFARGFGGGTIHYSTDSGGQQGIIAVIPGYVSYESSIKWWGPRLASWGFTVITINTNTIYDQPNSRANQLSAAIDYVIDKGNDRSSPIYGLVDPERVGVIGWSMGGGGTLKLATDRDIDAIIPQAPWYSGLNSFSRITTPTMVIACQADAVAPVALHASIFYNQIPRSTPKAFFEIAAGSHFCGNSGYPNEDILGRNGVAWMKRFIDNDTRYNQFLCGQNFDRSLRVSDYKDTCNTY [DP094]", "< 25 µg"),
]

As a next step, examine the sequence that follows.
Exercise: Indicate the recorded purified protein yield per well value for this sequence: QNPFERGPAPTTASLEASRGPFATSSFTVSRPSGYGAGTVYYPTNAGGTVGAIAIVPGYTARQSSINWWGPRLASHGFVVITIDTNSTLDQPSSRSRQQLAALDQVATLARTSSSPIYNKVDTTRMGVMGWSMGGGGSLISAENRPSLKAAAPQAPWNSSTNFSSVTVPTLIFACENDSIAATGSHASPMYNSMSRNPKQYLEINGGSHSCANSGNSNQALIGKKGVAWMKRYMDNDTRYTSFACANPNSTRVSDFRVARCS [ESM086]
Key: < 25 µg
